Reference source: the Human Domainome abundance scans (Beltran et al. 2025)

B1: Homeobox protein cut-like 2, residues 895 to 963; numbered along this chain, O14529 (parent)
chain: EVDTLELTRQVKEKLAKNGICQRIFGEKVLGLSQGSVSDMLSRPKPWSKLTQKGREPFIRMQLWLSDQL

Variants of: B1
Assay info: abundance fitness (aPCA) (normalised: wild type 0, dead -1); higher = more abundant; growth selection in yeast, the domain comes from the species named
Setup conditions: Homo sapiens
Returns the class for an entry based on its abundance fitness. Class ranges: bucket 1 = under -0.1, bucket 2 = from -0.1 up to -0.05, bucket 3 = -0.05 and over

Previously resolved entries follow.
seq_text="EVDTLELTRQVKEKLAKNGICQRLFGEKVLGLSQGSVSDMLSRPKPWSKLTQKGREPFIRMQLWLSDQL [I24L]" class_assignment="bucket 3"
seq_text="EVDTLELTRQVKEKLAKNGICQRIFGEKVLGLSQGSVSDMLSRPKPWSKLTQKGREPFIRMQLWLSDQY [L69Y]" class_assignment="bucket 2"
seq_text="EVDTLDLTRQVKEKLAKNGICQRIFGEKVLGLSQGSVSDMLSRPKPWSKLTQKGREPFIRMQLWLSDQL [E6D]" class_assignment="bucket 3"
seq_text="EVDTLELTRQVKEKLAKNGICQRIFGEKVLGLSQGSVNDMLSRPKPWSKLTQKGREPFIRMQLWLSDQL [S38N]" class_assignment="bucket 3"
seq_text="EVDTLELTRQVKEKLAKNGICQEIFGEKVLGLSQGSVSDMLSRPKPWSKLTQKGREPFIRMQLWLSDQL [R23E]" class_assignment="bucket 3"
seq_text="EVDTLELTRQVKEKLAKNGICQRIKGEKVLGLSQGSVSDMLSRPKPWSKLTQKGREPFIRMQLWLSDQL [F25K]" class_assignment="bucket 1"
seq_text="EVDTLELTRQVKEKLAKNAICQRIFGEKVLGLSQGSVSDMLSRPKPWSKLTQKGREPFIRMQLWLSDQL [G19A]" class_assignment="bucket 1"
seq_text="EVDTLELTRQVKEKLAKNGICQRIFGEKVLGLSQGSVSCMLSRPKPWSKLTQKGREPFIRMQLWLSDQL [D39C]" class_assignment="bucket 1"
seq_text="EVDTLELTRQVKEKLAKNGICQRIFGEKVLGLSQGSVSDMLSRPKPWSKLTQKGREPFWRMQLWLSDQL [I59W]" class_assignment="bucket 1"
seq_text="EVDTLELTRQVKEKLAKNGICQRIFGETVLGLSQGSVSDMLSRPKPWSKLTQKGREPFIRMQLWLSDQL [K28T]" class_assignment="bucket 2"

Kindly state the category for this variant: EVDTLELTRQVKEKLAKNGICQRIFGEKVLGLSQKSVSDMLSRPKPWSKLTQKGREPFIRMQLWLSDQL [G35K] bucket 3

Category lookup for the variant EVDTLELTRQVKEKLAKNGICWRIFGEKVLGLSQGSVSDMLSRPKPWSKLTQKGREPFIRMQLWLSDQL [Q22W] bucket 3
